biological target: human TLR9 (Homo sapiens (Human), UniProt Q9NR96); assay: TLR9 inhibition reporter assay (HEK-Blue SEAP); conditions: read-out: TLR9 IC50; HEK-Blue cells overexpressing human TLR9, SEAP reporter, ODN2006 5 nM
Sequence (Q9NR96 26-1032): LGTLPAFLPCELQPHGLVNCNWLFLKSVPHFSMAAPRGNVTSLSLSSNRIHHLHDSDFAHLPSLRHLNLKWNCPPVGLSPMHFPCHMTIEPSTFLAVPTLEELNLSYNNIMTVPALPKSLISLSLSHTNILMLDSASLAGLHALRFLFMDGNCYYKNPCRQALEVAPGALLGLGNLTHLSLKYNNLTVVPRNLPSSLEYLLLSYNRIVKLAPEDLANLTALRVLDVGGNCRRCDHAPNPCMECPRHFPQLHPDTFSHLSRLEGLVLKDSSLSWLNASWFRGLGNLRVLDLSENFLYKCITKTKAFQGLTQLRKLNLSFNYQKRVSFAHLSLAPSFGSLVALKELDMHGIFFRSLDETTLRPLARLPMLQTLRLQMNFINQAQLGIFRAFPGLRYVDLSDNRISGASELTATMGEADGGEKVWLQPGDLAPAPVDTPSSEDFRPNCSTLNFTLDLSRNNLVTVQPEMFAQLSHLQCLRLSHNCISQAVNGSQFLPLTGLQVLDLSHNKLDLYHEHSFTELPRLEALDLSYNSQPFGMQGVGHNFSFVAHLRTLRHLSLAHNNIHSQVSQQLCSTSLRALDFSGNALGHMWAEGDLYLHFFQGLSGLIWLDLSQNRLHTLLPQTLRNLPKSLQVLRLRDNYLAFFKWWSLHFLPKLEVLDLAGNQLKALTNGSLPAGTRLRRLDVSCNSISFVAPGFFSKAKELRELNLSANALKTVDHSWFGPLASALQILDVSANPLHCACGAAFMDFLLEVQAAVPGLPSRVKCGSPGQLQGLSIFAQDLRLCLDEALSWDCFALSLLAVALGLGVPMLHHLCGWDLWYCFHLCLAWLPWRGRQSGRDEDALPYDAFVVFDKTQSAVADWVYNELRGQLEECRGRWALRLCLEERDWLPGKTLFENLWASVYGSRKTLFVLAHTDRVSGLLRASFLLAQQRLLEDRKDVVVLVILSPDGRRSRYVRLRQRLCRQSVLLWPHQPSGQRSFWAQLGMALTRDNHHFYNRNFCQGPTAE
pIC50: −log10 of the molar value.
Measured endpoint: pIC50

// solved cases for pIC50 follow
{"Compound": "Cc1c(-c2[nH]c3ccc(C4CCN(C5CCN(C)C5=O)CC4)nc3c2C(C)C)cn2ncnc2c1C (stereo not drawn)", "Tested target": "human TLR9 (Homo sapiens (Human), UniProt Q9NR96)", "pIC50": 5.37}
{"Compound": "Cc1c(-c2[nH]c3ccc(C4CCN(CC(C)(C)O)CC4)nc3c2C(C)C)cn(C)c(=O)c1C", "Tested target": "human TLR9 (Homo sapiens (Human), UniProt Q9NR96)", "pIC50": 5.86}
{"Compound": "COc1cc(-c2[nH]c3ccc(C4CCNCC4)nc3c2C(C)C)cn2ncnc12", "Tested target": "human TLR9 (Homo sapiens (Human), UniProt Q9NR96)", "pIC50": 6.55}
{"Compound": "Cc1c(-c2[nH]c3ccc(C4CCC(N(C)CC5(S(C)(=O)=O)CC5)CC4)nc3c2C(C)C)cn2ncnc2c1C (stereo not drawn) [Example 479]", "Tested target": "human TLR9 (Homo sapiens (Human), UniProt Q9NR96)", "pIC50": 4.63}
{"Compound": "COc1cc(-c2[nH]c3cc(C)c(C4CCN(C5CCOCC5)CC4)nc3c2C(C)C)cn2ncnc12", "Tested target": "human TLR9 (Homo sapiens (Human), UniProt Q9NR96)", "pIC50": 5.97}
{"Compound": "COc1cc(-c2[nH]c3ccc(C4CCC(N(CCS(C)(=O)=O)CCS(C)(=O)=O)C4)nc3c2C(C)C)cn2ncnc12 (stereo not drawn) [Example 726]", "Tested target": "human TLR9 (Homo sapiens (Human), UniProt Q9NR96)", "pIC50": 4.40}
{"Compound": "CC(C)c1c(-c2cn(C)c3ncccc23)[nH]c2ccc(CCC3CN(CC4(C)COC4)C3)nc12", "Tested target": "human TLR9 (Homo sapiens (Human), UniProt Q9NR96)", "pIC50": 6.50}
{"Compound": "Cc1cc2[nH]c(-c3cc(C)c4ncnn4c3)c(C(C)C)c2nc1C1CCN(CC(=O)N(C)C)CC1", "Tested target": "human TLR9 (Homo sapiens (Human), UniProt Q9NR96)", "pIC50": 5.31}
{"Compound": "COc1cc(-c2[nH]c3ccc(C4CCC(NCC5(C)COC5)C4)nc3c2C(C)C)cn2ncnc12 (stereo not drawn) [Example 711]", "Tested target": "human TLR9 (Homo sapiens (Human), UniProt Q9NR96)", "pIC50": 5.77}
{"Compound": "COc1cc(-c2[nH]c3ccc(OCC4CN(C)C4)nc3c2C(C)C)cn2ncnc12", "Tested target": "human TLR9 (Homo sapiens (Human), UniProt Q9NR96)", "pIC50": 5.77}

[1] COc1cc(-c2[nH]c3ccc(C4CCC(NC5CCOCC5)C4)nc3c2C(C)C)cn2ncnc12 (stereo not drawn) [Example 707]
[2] Cc1c(-c2[nH]c3ccc(C4CCN(CC(=O)N(C)C)CC4)nc3c2C(C)C)cn(C)c(=O)c1Cl
Asked: Between the two listed entries 1 and 2 , which has its pIC50 at the higher number? Record your answer as the label of the chosen record.
Given back: 1

* * *

target: human TLR8 (Homo sapiens (Human), UniProt Q9NR97); test: TLR8 inhibition reporter assay (HEK-Blue SEAP); settings: read-out: TLR8 IC50; HEK-Blue human TLR8 cells, R848 15.9 μM
Sequence (Q9NR97 27-1041): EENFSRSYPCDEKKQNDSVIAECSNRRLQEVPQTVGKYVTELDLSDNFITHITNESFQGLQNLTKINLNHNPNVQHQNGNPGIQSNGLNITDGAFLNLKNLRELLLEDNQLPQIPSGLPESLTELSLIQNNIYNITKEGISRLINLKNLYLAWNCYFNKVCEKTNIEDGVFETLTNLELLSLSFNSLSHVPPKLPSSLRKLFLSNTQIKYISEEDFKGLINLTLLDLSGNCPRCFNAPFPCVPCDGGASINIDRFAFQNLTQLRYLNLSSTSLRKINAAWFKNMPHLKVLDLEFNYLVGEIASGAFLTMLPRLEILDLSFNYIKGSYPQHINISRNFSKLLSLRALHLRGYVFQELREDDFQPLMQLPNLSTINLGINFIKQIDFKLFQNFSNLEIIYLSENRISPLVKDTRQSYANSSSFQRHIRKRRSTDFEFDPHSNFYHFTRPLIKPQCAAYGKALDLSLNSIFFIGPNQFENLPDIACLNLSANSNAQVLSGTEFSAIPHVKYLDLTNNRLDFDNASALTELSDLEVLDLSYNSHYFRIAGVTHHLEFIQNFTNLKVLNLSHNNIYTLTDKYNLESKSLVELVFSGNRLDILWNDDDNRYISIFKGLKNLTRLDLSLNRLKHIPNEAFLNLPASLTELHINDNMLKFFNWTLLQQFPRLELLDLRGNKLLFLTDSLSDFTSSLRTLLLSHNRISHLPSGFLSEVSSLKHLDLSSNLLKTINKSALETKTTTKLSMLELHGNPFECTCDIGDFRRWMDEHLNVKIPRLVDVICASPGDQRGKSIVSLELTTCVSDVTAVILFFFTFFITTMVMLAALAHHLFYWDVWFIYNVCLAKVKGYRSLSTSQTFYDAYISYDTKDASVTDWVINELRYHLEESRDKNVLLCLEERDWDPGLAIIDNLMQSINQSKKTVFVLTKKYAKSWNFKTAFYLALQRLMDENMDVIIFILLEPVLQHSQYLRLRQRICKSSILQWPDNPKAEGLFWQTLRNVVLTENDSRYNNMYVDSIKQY
Measured endpoint: IC50 (nM)

{"Molecule": "Cc1c(-c2[nH]c3ccc(N4CCN(C(=O)CCN(C)C)C[C@H]4C)nc3c2C(C)C)cn2ncnc2c1C", "Tested target": "human TLR8 (Homo sapiens (Human), UniProt Q9NR97)", "IC50 / nM": 1.2}
{"Molecule": "Cc1c(-c2[nH]c3ccc(N4C[C@@H](C)N(C(=O)CCN(C)C)[C@@H](C)C4)nc3c2C(C)C)cn2ncnc2c1C", "Tested target": "human TLR8 (Homo sapiens (Human), UniProt Q9NR97)", "IC50 / nM": 0.62}
{"Molecule": "COc1cc(-c2[nH]c3ccc(C4CCC(N5CCC6(COC6)C5)CC4)nc3c2C(C)C)cn2ncnc12 (stereo not shown) [Example 1073]", "Tested target": "human TLR8 (Homo sapiens (Human), UniProt Q9NR97)", "IC50 / nM": 28}
{"Molecule": "CNC(=O)CCN1CCN(c2ccc3[nH]c(-c4cn5ncnc5c(C)c4C)c(C(C)C)c3n2)[C@@H](C)C1", "Tested target": "human TLR8 (Homo sapiens (Human), UniProt Q9NR97)", "IC50 / nM": 0.43}
{"Molecule": "Cc1c(-c2[nH]c3ccc(N4CCN(C(=O)CNC(C)C)C[C@H]4C)nc3c2C(C)C)cn2ncnc2c1C", "Tested target": "human TLR8 (Homo sapiens (Human), UniProt Q9NR97)", "IC50 / nM": 1.6}

[P] Cc1c(-c2[nH]c3ccc(N4C[C@@H](C)N(CCC(N)=O)C[C@@H]4C)nc3c2C(C)C)cn2ncnc2c1C
[Q] Cc1c(-c2[nH]c3ccc(N4CCN(C(=O)CN5CCCC5)C[C@@H]4C)nc3c2C(C)C)cn2ncnc2c1C
Asked: From the items above, decide which of P and Q has the lower IC50 reading. Record your answer as the label of the chosen record.
Given back: Q
(Q: 1.1 nM, P: 2.2 nM)

* * *

molecular target: human TLR9 (Homo sapiens (Human), UniProt Q9NR96); assay: TLR9 inhibition reporter assay (HEK-Blue SEAP); settings: read-out: TLR9 IC50; HEK-Blue cells overexpressing human TLR9, SEAP reporter, ODN2006 5 nM;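 note: SEAP driven by an IFN-β minimal promoter with NF-κB and AP-1 sites, read after 22 h, compounds dosed 0.05 nM–50 µM, inhibition scaled between agonist plus DMSO and reference-inhibitor wells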
pIC50: −log10 of the molar value.
Measured endpoint: pIC50

// solved cases for pIC50 follow
{"Compound": "Cc1cc(-c2[nH]c3ccc(C4CNCCO4)nc3c2C(C)C)cn(C)c1=O (stereo not drawn) [Example 675]", "Tested target": "human TLR9 (Homo sapiens (Human), UniProt Q9NR96)", "Assay result": 4.84}
{"Compound": "Cc1c(-c2[nH]c3ccc(C4CCC(NC5CC5)CC4)nc3c2C(C)C)cn2ncnc2c1C (stereo not drawn) [Example 426]", "Tested target": "human TLR9 (Homo sapiens (Human), UniProt Q9NR96)", "Assay result": 5.85}
{"Compound": "CNC(=O)CNC1CCC(c2ccc3[nH]c(-c4cc(OC)c5ncnn5c4)c(C(C)C)c3n2)C1 (stereo not drawn) [Example 725]", "Tested target": "human TLR9 (Homo sapiens (Human), UniProt Q9NR96)", "Assay result": 5.69}
{"Compound": "Cc1c(-c2[nH]c3ccc(C4CC(NC(=O)CN(C)C)C4)nc3c2C(C)C)cn2ncnc2c1C (stereo not drawn) [Example 644]", "Tested target": "human TLR9 (Homo sapiens (Human), UniProt Q9NR96)", "Assay result": 5.57}
{"Compound": "Cc1c(-c2[nH]c3ccc(C4CCC(N(CCC#N)C5CC5)CC4)nc3c2C(C)C)cn2ncnc2c1C (stereo not drawn) [Example 428]", "Tested target": "human TLR9 (Homo sapiens (Human), UniProt Q9NR96)", "Assay result": 5.01}
{"Compound": "COc1cc(-c2[nH]c3ccc(C4CCC(NCC#N)C4)nc3c2C(C)C)cn2ncnc12 (stereo not drawn) [Example 716]", "Tested target": "human TLR9 (Homo sapiens (Human), UniProt Q9NR96)", "Assay result": 5.60}
{"Compound": "Cc1c(-c2[nH]c3ccc(N4C[C@H](C)N(C(=O)CN(C)C)[C@@H](C)C4)nc3c2C(C)C)cn2ncnc2c1C [Example 760]", "Tested target": "human TLR9 (Homo sapiens (Human), UniProt Q9NR96)", "Assay result": 5.12}
{"Compound": "Cc1c(-c2[nH]c3ccc(N4CCN(C(=O)CCN(C)C)[C@@H](C)C4)nc3c2C(C)C)cn2ncnc2c1C [Example 790]", "Tested target": "human TLR9 (Homo sapiens (Human), UniProt Q9NR96)", "Assay result": 5.06}
{"Compound": "Cc1c(-c2[nH]c3ccc(C4CCC(NCC(C)(C)S(C)(=O)=O)CC4)nc3c2C(C)C)cn2ncnc2c1C (stereo not drawn) [Example 455]", "Tested target": "human TLR9 (Homo sapiens (Human), UniProt Q9NR96)", "Assay result": 5.04}
{"Compound": "Cc1c(-c2[nH]c3ccc(C4CCC(NC5CCS(=O)(=O)C5)CC4)nc3c2C(C)C)cn2ncnc2c1C (stereo not drawn) [Example 470]", "Tested target": "human TLR9 (Homo sapiens (Human), UniProt Q9NR96)", "Assay result": 5.13}

[I] Cc1c(-c2[nH]c3ccc(C4CCC(N5CC(S(C)(=O)=O)C5)CC4)nc3c2C(C)C)cn2ncnc2c1C (stereo not drawn) [Example 448]
[II] Cc1cnc(CN(C)C2CCC(c3ccc4[nH]c(-c5cn6ncnc6c(C)c5C)c(C(C)C)c4n3)CC2)cn1 (stereo not drawn) [Example 414]
[III] Cc1c(-c2[nH]c3ccc(C4CNCCN4)nc3c2C(C)C)cn2ncnc2c1C (stereo not drawn) [Example 680]
Asked: Arrange these compounds by their pIC50, starting with the largest number. Write the labels in rank order as requested.
Given back: III, II, I
(III: 5.98, II: 5.76, I: 5.11)

Each recorded value in this set is attributed to patent US10544143B2.
